Biological target: MMP-3 (Homo sapiens, UniProt P08254)
Construct: Truncated Prostromelysin-257 was expressed in a soluble form in E.coli; made in house; host or cells: E. coli
Sequence (P08254 100-274 limits assumed): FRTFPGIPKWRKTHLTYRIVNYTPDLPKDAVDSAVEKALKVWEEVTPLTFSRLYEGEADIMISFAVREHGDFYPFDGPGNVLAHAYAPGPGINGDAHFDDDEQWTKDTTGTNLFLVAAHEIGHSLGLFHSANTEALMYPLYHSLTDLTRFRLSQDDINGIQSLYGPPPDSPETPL
Experiment: Automated MMP Profiling Assay, MMP-3 fluorogenic
Assay type: biochemical
Settings: 96-well automated, P218
measured endpoint: log10 IC50 (log10 of the value in nM)
Log10 applied to IC50; unit prior to transform: nM.

As a guide, the following entries are already answered.
CCCCCOc1ccc(-c2ccc(C(=O)[C@H]3CC[C@H](Sc4ccccc4)[C@@H]3C(=O)O)cc2)cc1 (relative stereo) :: 1.88
O=C(CC(CCN1C(=O)[C@H]2CC=CC[C@H]2C1=O)C(=O)O)c1ccc(-c2ccc(Cl)cc2)cc1 (relative stereo) :: 1.59
CCN(CC)C(=O)c1cccc(CCC(CC(=O)c2ccc(-c3ccc(Cl)cc3)cc2)C(=O)O)c1 (centres unmarked) :: 1.18
O=C(CC(CCN1C(=O)c2ccc(OCc3ccccc3)cc2C1=O)C(=O)O)c1ccc(-c2ccc(Cl)cc2)cc1 (centres unmarked) :: 1.88
CCCCCOc1ccc(-c2ccc(C(=O)CC(CCc3ccccc3)C(=O)O)cc2)cc1 (centres unmarked) :: 1.57
Nc1cccc2c1C(=O)N(C[C@@H]1CC[C@H](C(=O)c3ccc(-c4ccc(Cl)cc4)cc3)[C@H]1C(=O)O)C2=O (relative stereo) :: 0.40
O=C(CC(CCN1C(=O)c2cc3ccccc3cc2C1=O)C(=O)O)c1ccc(-c2ccc(Cl)cc2)cc1 (centres unmarked) :: 1.09
COc1ccc(CSCCC(CC(=O)c2ccc(-c3ccc(Cl)cc3)cc2)C(=O)O)cc1 (centres unmarked) :: 2.28
O=C(CC(CCCc1ccccc1)C(=O)O)c1ccc(-c2ccc(OCc3cccc(Cl)c3)cc2)cc1 (centres unmarked) :: 1.76
CC(=O)OC[C@@H]1C[C@@H](C(=O)c2ccc(-c3ccc(Cl)cc3)cc2)[C@H]1C(=O)O (relative stereo) :: 3.51

Incoming: Report log10 IC50 for O=C(O)[C@H]1[C@@H](SCc2ccccc2)CC[C@@H]1C(=O)c1ccc(-c2ccc(Cl)cc2)cc1 (relative stereo) tested on MMP-3 (Homo sapiens, UniProt P08254).
Outgoing: 1.76

Incoming: Report log10 IC50 for CCCCNC(=O)c1cccc(CCC(CC(=O)c2ccc(-c3ccc(Cl)cc3)cc2)C(=O)O)c1 (centres unmarked) tested on MMP-3 (Homo sapiens, UniProt P08254).
Outgoing: 2.57

Incoming: Report log10 IC50 for O=C(NC[C@@H]1CC[C@H](C(=O)c2ccc(-c3ccc(Cl)cc3)cc2)[C@H]1C(=O)O)c1ccccc1 (relative stereo) tested on MMP-3 (Homo sapiens, UniProt P08254).
Outgoing: 1.38
